Examples of compounds with documented EC50 follow.
# System: HCT-15
# protocol: Cytotoxicity against human HCT15 cells after 72 hrs
# Format: functional
# assay-conditions: HCT-15, 72 h, read-out: ED50 (the source's name)

compound: CCCCC[C@H]1CCCCCCCCCC(=O)O[C@@H]2[C@@H](O[C@@H]3O[C@H](C)[C@@H](OC(=O)C(C)C(C)O)[C@H](O)[C@H]3O)[C@H](C)O[C@@H](O[C@H]3[C@H](O[C@H]4[C@H](O1)O[C@H](C)[C@@H](O)[C@@H]4O)O[C@H](COC(=O)C(C)C(C)O)[C@@H](O)[C@@H]3O)[C@@H]2OC(=O)CC(C)C (stereo partly drawn) [STANSIN 2]
assay-value: > 24 µg/mL

compound: CCCCC[C@H]1CCCCCCCCCC(=O)O[C@@H]2[C@@H](O[C@@H]3O[C@H](C)[C@@H](OC(=O)C(C)CC)[C@H](O)[C@H]3O)[C@H](C)O[C@@H](O[C@H]3[C@H](O[C@H]4[C@H](O1)O[C@H](C)[C@@H](O)[C@@H]4O)O[C@H](CO)[C@@H](O)[C@@H]3O)[C@@H]2OC(=O)C(C)CC (stereo partly drawn) [STANSIN 5]
assay-value: 24 µg/mL

So what does the record say about EC50 for CCCCC[C@H]1CCCCCCCCCC(=O)O[C@@H]2[C@@H](O[C@@H]3O[C@H](C)[C@@H](OC(=O)C(C)C(C)O)[C@H](O)[C@H]3O)[C@H](C)O[C@@H](O[C@H]3[C@H](O[C@H]4[C@H](O1)O[C@H](C)[C@@H](O)[C@@H]4O)O[C@H](COC(=O)C(C)C(C)O)[C@@H](O)[C@@H]3O)[C@@H]2OC(=O)C(C)CC (stereo partly drawn) [STANSIN 3] ?
> 24 µg/mL

----------
# Test system: HCT-15
# protocol: Cytotoxicity against human HCT15 cells after 72 hrs
# Format: functional
# assay-conditions: HCT-15, 72 h, read-out: ED50 (the source's name)
metric: EC50

So what does the record say about EC50 for CCCCC[C@H]1CCCCCCCCCC(=O)O[C@@H]2[C@@H](O[C@@H]3O[C@H](C)[C@@H](OC(=O)C(C)C(C)O)[C@H](O)[C@H]3O)[C@H](C)O[C@@H](O[C@H]3[C@H](O[C@H]4[C@H](O1)O[C@H](C)[C@@H](O)[C@@H]4O)O[C@H](COC(=O)C(C)C(C)O)[C@@H](O)[C@@H]3O)[C@@H]2OC(=O)C(C)C (stereo partly specified) ?
> 24 µg/mL

These entries and their values trace back to ChEMBL document CHEMBL1148900.
